Experiment: Dissociation constant, pKa of the compound
Format: physicochemical
pKa values, listed per item
ENDPOINT NAME: pKa

1) O=C(O)c1ccc(O)c(/C=N/NC(=S)NC2CCCCC2)c1 | 5.8
2) O=C(O)c1cccc(/C=N/NC(=S)NC2CCCCC2)c1O | 3.8
3) O=C(O)c1cc(/C=N/NC(=S)NC2CCCCC2)ccc1O | 4.2
4) O=C(O)c1ccccc1/C=N/NC(=S)NC1CCCCC1 | 6.4
5) Oc1cccc(/C=N/NC(=S)NC2CCCCC2)c1 | 10.2
6) Oc1ccccc1/C=N/NC(=S)NC1CCCCC1 | 9.8

* * *

pKa values, listed per item
Assay: Dissociation constant, pKa of the compound
Type: physicochemical
ENDPOINT NAME: pKa

1. Cc1ccc(/C=N/NC(=S)NC2CCCCC2)c(C(=O)O)c1O | 4.3
2. OB(O)c1ccccc1/C=N/NC(=S)NC1CCCCC1 | 7.7
3. O=C(O)c1cccc(/C=N/NC(=S)NC2CCCCC2)c1 | 5.4
4. S=C(N/N=C/c1cccc(-c2nnn[nH]2)c1)NC1CCCCC1 | 5.2

* * *

Species on record: Gallus gallus
Experiment: Acute toxicity in chick embryo after 72 to 96 hrs by hen's fertile egg screening test
Assay type: organism-based
Details: chicken, in vivo
ENDPOINT NAME: Activity

1. COc1c2c(c(O)c3c1C(=O)c1c(cc(O)c(C)c1O)C3=O)-c1c(cc(/C=N/NC(=S)NC3CCCCC3)c(C(=O)O)c1O)CC2 | > 50 mg/kg
2. O=C(O)c1ccc(O)c(/C=N/NC(=S)NC2CCCCC2)c1 | > 100 mg/kg
3. O=C(O)c1cc(/C=N/NC(=S)NC2CCCCC2)ccc1O | > 50 mg/kg
4. O=C(O)c1cccc(/C=N/NC(=S)NC2CCCCC2)c1O | > 50 mg/kg
